- SYSTEM UNDER TEST: T1, human chemokine (C-C motif) receptor 8 (CCR8) (human, UniProt P51685 1-355)
- T1 construct: On human peripheral blood lymphocytes / PBMC (native) or on human CCR8 GFP-transfected Ba/F3 cells; also called hCCR8; human CCR8
- T1 sequence (P51685 whole entry): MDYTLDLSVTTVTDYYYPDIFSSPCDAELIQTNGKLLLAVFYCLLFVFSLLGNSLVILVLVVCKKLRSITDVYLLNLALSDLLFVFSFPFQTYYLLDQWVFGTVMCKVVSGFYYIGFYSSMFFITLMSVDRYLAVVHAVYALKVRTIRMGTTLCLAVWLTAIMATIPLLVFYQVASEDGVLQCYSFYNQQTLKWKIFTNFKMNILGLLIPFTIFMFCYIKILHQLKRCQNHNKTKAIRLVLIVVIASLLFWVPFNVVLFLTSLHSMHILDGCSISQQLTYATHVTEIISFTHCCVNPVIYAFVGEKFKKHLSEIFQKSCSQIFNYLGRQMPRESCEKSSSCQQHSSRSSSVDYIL
- TEST DETAILS: flow cytometry blocking, PBMC CCR8+ CD4+ cells; competitor PE-ABII (its MFI is read)
Documented MFI across a set of binders
# print the numeric value only

1) AB1 (antibody, V domains shown, Hybridoma monoclonal (mice or rats immunised); Used purified and PE-conjugated; also called antibody 1; clone 1) VH: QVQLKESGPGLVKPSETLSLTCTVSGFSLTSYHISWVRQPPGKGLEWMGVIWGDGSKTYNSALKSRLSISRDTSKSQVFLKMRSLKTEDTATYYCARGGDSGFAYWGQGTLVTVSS VL: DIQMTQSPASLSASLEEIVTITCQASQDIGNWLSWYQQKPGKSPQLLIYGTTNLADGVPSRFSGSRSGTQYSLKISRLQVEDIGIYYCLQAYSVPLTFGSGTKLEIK; 1080
2) AB8 (antibody, V domains shown, Hybridoma monoclonal; also called antibody 8; clone 8) VH: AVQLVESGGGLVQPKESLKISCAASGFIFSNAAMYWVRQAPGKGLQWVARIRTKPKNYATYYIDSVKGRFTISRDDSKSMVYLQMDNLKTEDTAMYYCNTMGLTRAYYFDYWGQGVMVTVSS VL: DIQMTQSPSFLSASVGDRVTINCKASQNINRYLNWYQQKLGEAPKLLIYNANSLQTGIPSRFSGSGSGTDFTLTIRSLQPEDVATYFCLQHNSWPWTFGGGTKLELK; 808
3) AB10 (antibody, V domains shown, Hybridoma monoclonal; also called antibody 10; clone 10) VH: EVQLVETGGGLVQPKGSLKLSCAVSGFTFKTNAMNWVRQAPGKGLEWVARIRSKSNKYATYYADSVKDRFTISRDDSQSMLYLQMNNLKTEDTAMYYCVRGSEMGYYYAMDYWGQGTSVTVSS VL: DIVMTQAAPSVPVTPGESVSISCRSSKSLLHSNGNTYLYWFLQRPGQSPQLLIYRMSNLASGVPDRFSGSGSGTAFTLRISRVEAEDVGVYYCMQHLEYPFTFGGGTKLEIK; 942

Attention now turns to another entry.
Task item: Data request, read-out MFI, for AB13 (antibody, V domains shown, Hybridoma monoclonal; also called antibody 13; clone 13) VH: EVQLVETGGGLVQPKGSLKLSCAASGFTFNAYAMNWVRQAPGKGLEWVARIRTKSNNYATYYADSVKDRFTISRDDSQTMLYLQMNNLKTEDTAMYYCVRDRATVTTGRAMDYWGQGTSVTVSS VL: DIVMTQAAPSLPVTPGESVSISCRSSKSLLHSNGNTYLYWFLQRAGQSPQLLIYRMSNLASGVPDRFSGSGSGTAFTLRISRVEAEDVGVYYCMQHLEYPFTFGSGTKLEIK
Reply: 972

// data source = patent US20240360228A1
